# System: human FXR (Homo sapiens, UniProt Q96RI1)
# Sequence (Q96RI1 262-486 limits assumed): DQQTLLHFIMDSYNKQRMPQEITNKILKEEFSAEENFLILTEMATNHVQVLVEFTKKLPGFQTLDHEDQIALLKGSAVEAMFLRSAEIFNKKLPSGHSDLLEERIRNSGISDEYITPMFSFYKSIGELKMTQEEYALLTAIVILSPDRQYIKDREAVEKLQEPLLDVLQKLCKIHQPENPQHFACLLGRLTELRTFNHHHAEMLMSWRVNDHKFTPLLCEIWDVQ
# Procedure Text: transient human FXR/Gal4-luciferase reporter assay
# Condition Details: Gal4-hFXR (ligand binding domain) fusion transiently transfected in HEK293 Gal4-luciferase reporter cells; overnight incubation; response as percentage of 8 μM GW-4064 control
Task for the reader: assign each of the following molecules its reported EC50.

INSERT INTO measurements (molecule, experimental_value) VALUES
  ('COC(=O)/C=C/c1cccc(N(CC23CCC(c4nc(C)no4)(CC2)CC3)C(=O)C2CCCCC2)c1 [Example 20]', '0.056 µM'),
  ('COC(=O)/C=C/c1cccc(N(CC23CCC(c4nc(C)no4)(CC2)CC3)C(=O)C2CCCCCC2)c1 [Example 24]', '0.15 µM'),
  ('COC(=O)C1=Cc2cccc(N(CC34CCC(c5ccc(C6CC6)cc5)(CC3)CC4)C(=O)C3CC3)c2CC1 [Example 31]', '0.796 µM'),
  ('COC(=O)/C=C/c1cccc(N(CC23CCC(c4ccc(N5CCOCC5)cc4)(CC2)CC3)C(=O)C2CCCCC2)c1 [Example 3]', '0.165 µM'),
  ('COC(=O)C1=Cc2cccc(N(CC34CCC(c5ccc(C6CC6)cc5)(CC3)CC4)C(=O)C3CCCCC3)c2CC1 [Example 30]', '0.195 µM');

For each listed entry, give its EC50.
1. COC(=O)/C=C/c1cccc(N(CC23CCC(c4ccc(OC)cc4)(CC2)OC3)C(=O)C2CCCCC2)c1 [Example 10]
2. COC(=O)/C=C/c1cccc(N(CC23CCC(c4ccc(OC)cc4)(CC2)CC3)C(=O)C2CCCCC2)c1 [Example 15]

0.319 µM
0.243 µM
